Target: human CD33 S131T (human, UniProt P20138 18-364)
Sequence (P20138 18-364 S131T limits assumed): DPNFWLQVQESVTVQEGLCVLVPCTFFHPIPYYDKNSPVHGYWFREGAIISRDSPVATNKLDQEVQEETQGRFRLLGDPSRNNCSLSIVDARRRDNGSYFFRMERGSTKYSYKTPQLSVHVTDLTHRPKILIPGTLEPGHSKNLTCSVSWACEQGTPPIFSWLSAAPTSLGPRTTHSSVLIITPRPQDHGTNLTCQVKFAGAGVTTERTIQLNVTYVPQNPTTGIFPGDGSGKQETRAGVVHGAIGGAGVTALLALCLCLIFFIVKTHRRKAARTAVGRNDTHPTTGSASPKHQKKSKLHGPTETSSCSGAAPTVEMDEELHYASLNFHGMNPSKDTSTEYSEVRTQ
Assay: flow cytometry, HEK293-T, IgG;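 also: CD33 point mutants transiently expressed, antibody binding measured by fluorescence in duplicate, background subtracted and scaled to binding on wild-type CD33 as 100%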
test-readout: Mean % WT Binding (% WT binding)
Return type: number; implicit unit % WT binding.

Look up Mean % WT Binding: Refmab #3 (antibody, human IgG1, V domains shown, tested in IgG format) VH: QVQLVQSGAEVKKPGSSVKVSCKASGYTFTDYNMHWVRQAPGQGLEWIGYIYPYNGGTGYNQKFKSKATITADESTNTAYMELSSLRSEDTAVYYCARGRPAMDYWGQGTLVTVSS VL: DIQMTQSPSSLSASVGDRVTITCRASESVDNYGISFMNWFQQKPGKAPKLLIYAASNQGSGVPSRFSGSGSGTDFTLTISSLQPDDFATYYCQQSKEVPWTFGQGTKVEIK
116

What does the record list as Mean % WT Binding for Refmab #4 (antibody, human IgG1, V domains shown, tested in IgG format) VH: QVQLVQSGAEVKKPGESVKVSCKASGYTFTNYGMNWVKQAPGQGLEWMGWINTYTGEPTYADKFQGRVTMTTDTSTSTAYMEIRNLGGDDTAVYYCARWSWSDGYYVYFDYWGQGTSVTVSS VL: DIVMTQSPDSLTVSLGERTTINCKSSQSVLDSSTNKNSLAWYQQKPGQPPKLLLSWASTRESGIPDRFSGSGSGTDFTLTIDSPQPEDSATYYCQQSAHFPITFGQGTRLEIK ?
102

Please give the measured Mean % WT Binding for this binder: Refmab #2 (antibody, human IgG1, V domains shown, tested in IgG format) VH: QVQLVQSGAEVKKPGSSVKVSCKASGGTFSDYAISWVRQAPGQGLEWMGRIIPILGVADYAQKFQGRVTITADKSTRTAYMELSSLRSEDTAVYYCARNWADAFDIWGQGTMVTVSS VL: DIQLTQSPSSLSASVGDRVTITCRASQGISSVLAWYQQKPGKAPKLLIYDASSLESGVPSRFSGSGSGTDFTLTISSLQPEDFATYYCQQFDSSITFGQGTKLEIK
111

Look up Mean % WT Binding for this binder: Refmab #1 (antibody, human IgG1, V domains shown, tested in IgG format; also called hP67.6) VH: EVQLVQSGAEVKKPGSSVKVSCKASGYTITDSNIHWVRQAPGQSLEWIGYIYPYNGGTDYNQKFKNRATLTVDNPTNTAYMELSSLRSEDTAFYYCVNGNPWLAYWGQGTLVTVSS VL: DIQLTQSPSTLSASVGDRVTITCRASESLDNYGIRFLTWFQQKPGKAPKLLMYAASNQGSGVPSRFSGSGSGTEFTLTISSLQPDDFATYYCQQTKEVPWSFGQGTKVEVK
97.2

Taken from patent US20260242735A1.
